target: acetylcholine receptor; experiment: SPR, receptor immobilized on CM5 chip, peptide 10 uM

- Binder: "KRYSRR [6mer-2-402]"
  Binding affinity (RU): 145
- Binder: "RRGFSK [6mer-1-297]"
  Binding affinity (RU): 139
- Binder: "RKRQLK [6mer-1-310]"
  Binding affinity (RU): 127
- Binder: "KKSRRK [6mer-1-318]"
  Binding affinity (RU): 145
- Binder: "KRFRKK [6mer-2-410]"
  Binding affinity (RU): 153
- Binder: "RRKCVR [6mer-1-914]"
  Binding affinity (RU): 39
- Binder: "KRWYRR [6mer-1-307]"
  Binding affinity (RU): 153
- Binder: "KRCAAR [6mer-1-911]"
  Binding affinity (RU): 28
- Binder: "RLILKR [6mer-2-413]"
  Binding affinity (RU): 136
- Binder: "RKQYCK [6mer-1-303]"
  Binding affinity (RU): 123
- Binder: "RRPSIK [6mer-1-897]"
  Binding affinity (RU): 24
- Binder: "KGVSKR [6mer-2-465]"
  Binding affinity (RU): 122
- Binder: "RKLISK [6mer-1-286]"
  Binding affinity (RU): 139
- Binder: "KRQQTR [6mer-1-278]"
  Binding affinity (RU): 142
- Binder: "RKFWHR [6mer-1-921]"
  Binding affinity (RU): 36
- Binder: "KRIPMR [6mer-1-867]"
  Binding affinity (RU): 25
- Binder: "KRDWIK [6mer-1-896]"
  Binding affinity (RU): 11
- Binder: "KVFLKK [6mer-2-428]"
  Binding affinity (RU): 142
- Binder: "KKPEWR [6mer-1-877]"
  Binding affinity (RU): 19
- Binder: "KGQRRK [6mer-2-426]"
  Binding affinity (RU): 141
- Binder: "KKRVQK [6mer-1-332]"
  Binding affinity (RU): 122
- Binder: "KLILKR [6mer-2-431]"
  Binding affinity (RU): 135
- Binder: "RRKDNR [6mer-1-878]"
  Binding affinity (RU): 27
- Binder: "RLLCRK [6mer-2-438]"
  Binding affinity (RU): 131
- Binder: "KQVCKK [6mer-2-437]"
  Binding affinity (RU): 121
- Binder: "RQRYRK [6mer-2-450]"
  Binding affinity (RU): 123
- Binder: "KSFRKK [6mer-2-464]"
  Binding affinity (RU): 135
- Binder: "KKGLCR [6mer-1-277]"
  Binding affinity (RU): 141
- Binder: "RWRQRK [6mer-2-429]"
  Binding affinity (RU): 123
- Binder: "RRDKMK [6mer-1-902]"
  Binding affinity (RU): 39
- Binder: "RRLQRR [6mer-1-324]"
  Binding affinity (RU): 128
- Binder: "KRRITR [6mer-1-308]"
  Binding affinity (RU): 135
- Binder: "RRFQRR [6mer-2-458]"
  Binding affinity (RU): 122
